system: LOC_OS04G35114-cb001; assay: thermal shift delta Tm vs DMSO control; higher = stronger stabilization (binding); conditions: 12.5 µM; protein concentration 2 µM;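 further: purified Escherichia coli-expressed rice kinase domain construct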
measure name: thermal shift delta Tm (°C)
Report only the number, with the unit °C understood.

Qu. Form entry - test system: LOC_OS04G35114-cb001; read-out: thermal shift delta Tm; compound: CN1CCN(c2ccc3nc(-c4c(N)c5c(F)cccc5[nH]c4=O)[nH]c3c2)CC1 [Dovitinib (TKI-258) Dilactic Acid]
Ans. 9.41

Qu. Try the compound "COc1cc2ncnc(Nc3ccc(Oc4ccccc4)cc3C)c2cc1OC"
Ans. 4.14

Qu. Try the compound O=C(/C=C/c1ccc(O)c(O)c1)c1ccc(O)cc1O [Butein]
Ans. 3.66

Qu. Try the compound "COC(=O)Nc1ccc(-c2nc(N3CCOCC3)c3cnn(C4CCN(C(=O)OC)CC4)c3n2)cc1"
Ans. 0.06

Qu. Try the compound CN1CCN(CCOc2cc(OC3CCOCC3)c3c(Nc4c(Cl)ccc5c4OCO5)ncnc3c2)CC1 [Saracatinib (AZD0530)]
Ans. 7.08

Qu. Try the compound C=C[C@@](C)(/C=C/c1ccc(O)cc1)CCC=C(C)C [Bakuchiol]
Ans. 0.46

Qu. Try the compound "COc1ccc(CC(=O)Nc2nc3c(s2)CCc2ccccc2-3)cc1OC"
Ans. 0.71

Qu. Try the compound "O=C(NOCC1CC1)c1ccc(F)c(F)c1Nc1ccc(I)cc1Cl"
Ans. 0.12

Qu. Try the compound "Clc1ccc(C2(c3ccc(-c4cn[nH]c4)cc3)CCNCC2)cc1"
Ans. 0.57

Qu. Try the compound "COc1cc(OC)c(C=C2C(=O)Nc3ccccc32)c(OC)c1"
Ans. 0.7

Qu. Try the compound "Cc1c(C(=O)N2CCOc3ccc(-c4ccc(N)nc4)cc3C2)ccc(S(C)(=O)=O)c1F"
Ans. 0.73

Qu. Try the compound NC(=O)c1ncn([C@@H]2O[C@H](CO)[C@@H](O)[C@H]2O)c1N [AICAR (Acadesine)]
Ans. 0.59

---

So I've got a bunch of compounds here, and I need their thermal shift delta Tm values.
tested on: LOC_OS01G14860-cb001; assay: thermal shift delta Tm vs DMSO control; higher = stronger stabilization (binding); conditions: 12.5 µM; protein concentration 2 µM
Report only the number, with the unit °C understood.

Qu. # input compound: "Cc1cc(Nc2ncnc3ccc(NC4=NC(C)(C)CO4)cc23)ccc1Oc1ccn2ncnc2c1" ; wanted: its thermal shift delta Tm
Ans. -1.49

Qu. Try the compound "Cc1cn(-c2cc(NC(=O)c3ccc(C)c(Nc4nccc(-c5cccnc5)n4)c3)cc(C(F)(F)F)c2)cn1"
Ans. 0.32

Qu. Try the compound CN1CCN(c2ccc3nc(-c4c(N)c5c(F)cccc5[nH]c4=O)[nH]c3c2)CC1 [Dovitinib (TKI-258, CHIR-258)]
Ans. 0.79

Qu. Try the compound "Cc1ccc(NC(=O)c2ccc(CN3CC[C@H](N(C)C)C3)c(C(F)(F)F)c2)cc1Nc1nccc(-c2cncnc2)n1"
Ans. 0.5

Qu. Try the compound "CCOc1cc(C(=O)N2CCC(N3CCN(C)CC3)CC2)ccc1Nc1ncc2c(n1)N(C1CCCC1)c1ccccc1C(=O)N2C"
Ans. 0

Qu. Try the compound "O=C(Nc1nc2cccc(-c3ccc(CN4CCS(=O)(=O)CC4)cc3)n2n1)C1CC1"
Ans. 0.5

Qu. Try the compound "COc1cc(N2CCN(C)CC2)ccc1Nc1ncc2c(n1)N(C)c1ccccc1C(=O)N2"
Ans. 0.43

Qu. Try the compound "CC(C)c1cnn2c(NCc3ccccc3)cc(NCCCCCCN)nc12"
Ans. 0.11

Qu. Try the compound "Cc1ncc(-c2ccnc(Nc3ccc(S(C)(=O)=O)cc3)n2)n1C(C)C"
Ans. 7.5

Qu. Try the compound "Cn1sc(=O)n(Cc2ccccc2)c1=O"
Ans. -0.11

Qu. Try the compound "CCCS(=O)(=O)Nc1ccc(F)c(C(=O)c2c[nH]c3ncc(-c4ccc(Cl)cc4)cc23)c1F"
Ans. 4.3

Qu. Try the compound CN1CC(O)C2=C/C(=N/NC(N)=O)C(=O)C=C21 (configuration not stated)
Ans. 0.31

Qu. Try the compound "CCCCCCCCCCCCCCCCCCOP(=O)([O-])OC1CC[N+](C)(C)CC1"
Ans. -1.55

Qu. Try the compound "C=CC(=O)Nc1ccc2ncnc(Nc3cccc(Br)c3)c2c1"
Ans. 0.1

Qu. Try the compound "C[C@@H]1CN(CC(=O)Nc2ccc3c(c2)Cc2cccc(-c4cc(=O)cc(N5CCOCC5)o4)c2S3)C[C@H](C)O1"
Ans. 1.89

Qu. Try the compound "CCNC(=O)Nc1ccc(-c2nc(N3CCOC[C@@H]3C)c3c(n2)C(C)(C)S(=O)(=O)C3)cc1"
Ans. 0.6

Qu. Try the compound "CCn1c(-c2nonc2N)nc2c(C#CC(C)(C)O)ncc(OC[C@H]3CCCNC3)c21"
Ans. 3.95
